Molecular target: AdmX (Serratia plymuthica, UniProt P0DV33)
Sequence (P0DV33 whole entry): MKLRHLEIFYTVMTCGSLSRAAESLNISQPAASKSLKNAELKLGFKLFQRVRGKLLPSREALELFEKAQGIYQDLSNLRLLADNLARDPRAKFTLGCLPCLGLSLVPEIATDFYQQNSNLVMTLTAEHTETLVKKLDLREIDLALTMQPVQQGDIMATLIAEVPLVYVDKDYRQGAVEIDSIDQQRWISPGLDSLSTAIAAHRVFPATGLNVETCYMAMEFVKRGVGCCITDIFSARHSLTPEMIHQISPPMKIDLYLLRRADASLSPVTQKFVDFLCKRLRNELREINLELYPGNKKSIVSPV
Assay: ITC (also DSF shift of […]°C, in vitro transcription repression)
Assay type: binding
Observed property: pKd
Convention used: pKd is expressed as -log10 of the molar concentration.

Note to self: pKd recorded for O=C(O)Cc1c[nH]c2ccccc12 was 4.22

The values you see were collected from paper PMC6265452.
